Target: UniProtKB P43490
Sequence (P43490 whole entry): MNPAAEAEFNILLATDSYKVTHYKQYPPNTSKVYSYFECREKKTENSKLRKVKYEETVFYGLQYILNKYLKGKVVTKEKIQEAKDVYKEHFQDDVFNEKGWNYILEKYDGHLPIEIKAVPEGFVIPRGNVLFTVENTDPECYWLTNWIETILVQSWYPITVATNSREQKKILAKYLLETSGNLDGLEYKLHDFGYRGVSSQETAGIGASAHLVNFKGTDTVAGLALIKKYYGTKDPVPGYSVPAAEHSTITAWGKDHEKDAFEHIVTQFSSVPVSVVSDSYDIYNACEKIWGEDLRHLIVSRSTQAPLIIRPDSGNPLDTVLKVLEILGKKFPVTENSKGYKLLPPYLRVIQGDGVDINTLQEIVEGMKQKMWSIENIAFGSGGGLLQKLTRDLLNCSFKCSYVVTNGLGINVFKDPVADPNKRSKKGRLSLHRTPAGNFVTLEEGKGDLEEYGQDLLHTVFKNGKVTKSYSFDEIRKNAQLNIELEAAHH
Experiment: Human recombinant enzyme assay (NMN fluorescence biochemical assay, activation of NAMPT)
Conditions: Table A; human recombinant NAMPT, NMN formation, 60 min
VALUE_KIND: AC1.4 Human (µM)
Hi! Could you send only the number? It should be in µM, unit omitted.

AC1.4 Human of COc1ccc(CNC(=O)NC2CC3(C2)CC(C(=O)N2CCC(c4ccccc4)C2)C3)cc1 (stereo not drawn) [Compound 57] on UniProtKB P43490?
1.0

AC1.4 Human of Cc1ccc(C(=O)NC2CC3(CC(NC(=O)NCc4ccc(Cl)cc4)C3)C2)cn1 (stereo not drawn) [Compound 192] on UniProtKB P43490?
12.1

AC1.4 Human of CS(=O)(=O)C1CC2(CC(NC(=O)NCc3ccc(Cl)cc3)C2)C1 (stereo not drawn) [Compound 342] on UniProtKB P43490?
33.1

AC1.4 Human of O=C(NCCCCC1CCN(C(=O)c2ccccc2)CC1)NCc1ccc(CO)cc1 [Compound 22] on UniProtKB P43490?
0.1

AC1.4 Human of Cc1cnccc1C(=O)NC1CC2(CC(NC(=O)NCc3ccc(Cl)cc3)C2)C1 (stereo not drawn) [Compound 204] on UniProtKB P43490?
13.6

AC1.4 Human of O=C(CCCCCNC(=O)NCc1ccc(Cl)cc1)NC1CCCC1 [Compound 258] on UniProtKB P43490?
3.8

AC1.4 Human of CC(C)(C)OC(=O)N1CC2(CC(NC(=O)NCc3ccc(Cl)cc3)C2)C1 [Compound 197] on UniProtKB P43490?
3.7

AC1.4 Human of COc1ccc(CNC(=O)NC2CC3(C2)CC(C(=O)N2CCOc4ccccc42)C3)cc1 (stereo not drawn) [Compound 85] on UniProtKB P43490?
0.1

AC1.4 Human of O=C(NCc1ccc(Cl)cc1)NC1CC2(CC(Cn3nncc3-c3ccccc3)C2)C1 (stereo not drawn) [Compound 242] on UniProtKB P43490?
3.6

AC1.4 Human of COc1ccc(CNC(=O)NC2CC3(C2)CC(C(=O)N(C)[C@H](C)c2ccccc2F)C3)cc1 (stereo partly drawn) [Compound 53] on UniProtKB P43490?
0.3

AC1.4 Human of Cc1ccc(C(=O)N2CC[C@]3(C2)C[C@@H](NC(=O)NCc2ccc(Cl)cc2)C3)cc1 [Compound 159] on UniProtKB P43490?
8.7

AC1.4 Human of CC(C)(C)OC(=O)NC1CC2(CC(NC(=O)NCc3cn[nH]c3)C2)C1 (stereo not drawn) [Compound 10] on UniProtKB P43490?
5.8

AC1.4 Human of Cc1ccccc1CC(=O)N1CCC(CCCCNC(=O)NCc2ccc(Cl)cc2)CC1 [Compound 313] on UniProtKB P43490?
0.7

AC1.4 Human of COc1ccc(CNC(=O)NC2CC3(C2)CC(C(=O)N2CCc4ccccc42)C3)cc1 (stereo not drawn) [Compound 74] on UniProtKB P43490?
0.8

AC1.4 Human of O=C(NCc1ccc(Cl)cc1)NC1CC2(CC(CS(=O)(=O)c3ccccc3)C2)C1 (stereo not drawn) [Compound 352] on UniProtKB P43490?
6.0

AC1.4 Human of O=C(NCc1ccc(Cl)cc1)NC1CC2(C1)CC(NS(=O)(=O)c1ccccc1)C2 (stereo not drawn) [Compound 121] on UniProtKB P43490?
1.5

AC1.4 Human of COc1ccc(CNC(=O)NCCCCC2CCN(C(=O)c3ccccc3)CC2)cc1 [Compound 20] on UniProtKB P43490?
0.2

AC1.4 Human of O=C(NCc1ccc(Cl)cc1)NC1CC2(CC(CNC(=O)C3CCOCC3)C2)C1 (stereo not drawn) [Compound 250] on UniProtKB P43490?
1.8

AC1.4 Human of O=C(CCCCCNC(=O)NCc1ccc(Cl)cc1)Nc1cccc(F)c1 [Compound 285] on UniProtKB P43490?
3.5

AC1.4 Human of Cc1cccc(C(=O)NCC2CC3(C2)CC(NC(=O)NCc2ccc(Cl)cc2)C3)n1 (stereo not drawn) [Compound 245] on UniProtKB P43490?
3.1

AC1.4 Human of Cc1cccc(N2CC[C@]3(C2)C[C@@H](NC(=O)NCc2ccc(Cl)cc2)C3)n1 [Compound 183] on UniProtKB P43490?
11.2

AC1.4 Human of COc1ccc(CNC(=O)NC2CC3(C2)CC(C(=O)NC2CCCc4cc(F)ccc42)C3)cc1 (stereo in doubt) [Compound 98] on UniProtKB P43490?
3.0

AC1.4 Human of COc1ccc(CNC(=O)NC2CC3(C2)CC(C(=O)N2CCCc4cc(C(F)(F)F)ccc42)C3)cc1 (stereo not drawn) [Compound 104] on UniProtKB P43490?
0.5

AC1.4 Human of O=C(NCc1ccc(Cl)cc1)NC1CC2(CC(Cc3ccncc3)C2)C1 (stereo not drawn) [Compound 329] on UniProtKB P43490?
62.5

AC1.4 Human of Cc1ncccc1CC(=O)N1CCC(CCCCNC(=O)NCc2ccc(Cl)cc2)CC1 [Compound 310] on UniProtKB P43490?
0.8

AC1.4 Human of O=C(NCCCCC1CCN(C(=O)c2ccccc2)CC1)NCc1cnco1 [Compound 23] on UniProtKB P43490?
0.1

AC1.4 Human of Cc1ccncc1C(=O)NC1CC2(CC(NC(=O)NCc3ccc(Cl)cc3)C2)C1 (stereo not drawn) [Compound 205] on UniProtKB P43490?
10.0

AC1.4 Human of CC(C)(C)OC(=O)NC1CC2(CC(NC(=O)NCc3ccc(CO)cc3)C2)C1 (stereo not drawn) [Compound 9] on UniProtKB P43490?
3.4

AC1.4 Human of O=C(NCc1ccc(Cl)cc1)NC1CC2(C1)CN(S(=O)(=O)c1ccccc1Cl)C2 [Compound 216] on UniProtKB P43490?
4.9

AC1.4 Human of Cc1ccccc1C(=O)N1CCC(CCCCNC(=O)NCc2cnco2)CC1 [Compound 320] on UniProtKB P43490?
0.1

AC1.4 Human of COc1ccc(CNC(=O)NC2CC3(C2)CC(C(=O)NCc2ccccc2)C3)cc1 (stereo not drawn) [Compound 68] on UniProtKB P43490?
5.1

AC1.4 Human of COc1ccc(CNC(=O)NC2CC3(C2)CN(C(=O)c2cccc(OC)c2)C3)cc1 [Compound 176] on UniProtKB P43490?
2.0

AC1.4 Human of COc1ccc(CNC(=O)NC2CC3(C2)CN(C(=O)c2ccc(OC)cc2)C3)cc1 [Compound 155] on UniProtKB P43490?
2.7
